# Test system: human breast MDA-MB-361 tumor cell line
# protocol.text: In vitro cell culture growth assay (MTS), MDA-MB-361
# Assay type: cell-based
# condition.notes: Homo sapiens, MDA-MB-361, 72 h, MTS cell growth assay, three days after drug treatment, MDA-MB-361 cells; read-out: IC50 MDA-MB-361
For each of the compounds below, state its pIC50.
Answers are plain numbers, as −log10 of the molar value.

// worked examples, pIC50 included
CC(C)c1nc(-c2ccc(NC(=O)Nc3ccc(C(=O)N4CCN(C(C)C)CC4)cc3)cc2)nc(N2CCOCC2)n1
8.10
CN1CCN(C(=O)c2ccc(NC(=O)Nc3ccc(-c4nc(C5CCOCC5)nc(N5CCOCC5)n4)cc3)cc2)CC1
8.70
CC(C)N1CCN(C(=O)c2ccc(NC(=O)Nc3ccc(-c4nc(N5CCOCC5)nc(N5CCOC[C@@H]5C)n4)cc3)cc2)CC1
8.70
O=C(Nc1ccc(-c2nc(N3CCOCC3)nc(N3C4CCC3COC4)n2)cc1)Nc1cccnc1
7.14
CN(C)C(=O)Nc1ccc(NC(=O)Nc2ccc(-c3nc(N4CCOCC4)nc(N4CCOCC4)n3)cc2)cc1
7.65

API: the following record is the query input.
Query: Assign pIC50 to the following record: "CCN1CCN(C(=O)c2ccc(NC(=O)Nc3ccc(-c4nc(N5CCCC5)nc(N5CCOCC5)n4)cc3)cc2)CC1"
Response: 7.55

###

# tested.target: Human mTOR (FLAG-TOR) (Homo sapiens)
# Sequence (P42345 1360-2549 limits assumed): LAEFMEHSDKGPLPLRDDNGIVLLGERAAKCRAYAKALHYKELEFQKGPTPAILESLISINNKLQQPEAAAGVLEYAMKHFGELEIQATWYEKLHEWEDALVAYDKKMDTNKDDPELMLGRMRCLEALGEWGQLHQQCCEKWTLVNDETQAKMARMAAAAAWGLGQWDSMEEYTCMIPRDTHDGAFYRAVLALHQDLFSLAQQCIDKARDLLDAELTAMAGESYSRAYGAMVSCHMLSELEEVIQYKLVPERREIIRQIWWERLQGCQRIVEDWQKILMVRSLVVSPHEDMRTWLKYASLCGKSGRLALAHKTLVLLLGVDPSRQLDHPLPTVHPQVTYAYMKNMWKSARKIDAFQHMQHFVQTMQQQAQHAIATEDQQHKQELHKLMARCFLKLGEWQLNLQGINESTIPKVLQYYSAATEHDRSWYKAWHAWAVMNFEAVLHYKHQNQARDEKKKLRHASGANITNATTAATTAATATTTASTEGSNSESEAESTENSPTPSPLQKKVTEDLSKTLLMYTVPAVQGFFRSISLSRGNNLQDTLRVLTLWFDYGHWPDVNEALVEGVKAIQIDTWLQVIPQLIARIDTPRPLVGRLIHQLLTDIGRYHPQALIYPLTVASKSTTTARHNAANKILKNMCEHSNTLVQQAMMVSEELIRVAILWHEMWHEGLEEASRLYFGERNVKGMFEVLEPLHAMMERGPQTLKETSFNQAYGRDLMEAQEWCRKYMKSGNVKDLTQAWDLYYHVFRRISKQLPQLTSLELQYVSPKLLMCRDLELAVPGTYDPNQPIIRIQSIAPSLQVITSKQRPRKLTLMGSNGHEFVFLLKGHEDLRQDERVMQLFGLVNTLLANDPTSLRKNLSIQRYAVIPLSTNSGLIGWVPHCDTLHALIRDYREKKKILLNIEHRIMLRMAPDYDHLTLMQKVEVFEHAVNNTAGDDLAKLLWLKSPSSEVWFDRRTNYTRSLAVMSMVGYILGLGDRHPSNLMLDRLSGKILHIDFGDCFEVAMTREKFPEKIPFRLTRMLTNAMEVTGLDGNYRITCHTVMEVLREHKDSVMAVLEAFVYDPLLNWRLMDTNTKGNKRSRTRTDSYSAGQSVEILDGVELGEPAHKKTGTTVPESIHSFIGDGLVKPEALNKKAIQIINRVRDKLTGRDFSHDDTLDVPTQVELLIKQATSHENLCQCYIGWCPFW
# protocol.text: mTOR kinase assay (DELFIA format, purified enzyme)
# Type: biochemical
# condition.notes: read-out: IC50 mTOR
Classify: YES when IC50 is strictly less than 0.7 nM; NO when IC50 is not.

# count of solved cases: 5
CCCC1CCN(C(=O)c2ccc(NC(=O)Nc3ccc(-c4nc(N5CCOC[C@@H]5C)nc(N5CCOC[C@@H]5C)n4)cc3)cc2)CC1
NO
CC(C)Nc1nc(-c2ccc(NC(=O)Nc3ccc(CCO)cc3)cc2)nc(N2CC3CCC(C2)O3)n1
YES
O=C(Nc1ccc(C(=O)N2CCNCC2)cc1)Nc1ccc(-c2nc(N3CCOCC3)nc(N3C4CCCC3COC4)n2)cc1
YES
CN(C)CCN(C)C(=O)c1ccc(NC(=O)Nc2ccc(-c3nc(N4CCCCC4)nc(N4CCOCC4)n3)cc2)cc1
NO
CN1CCN(c2ccc(NC(=O)Nc3ccc(-c4nc(-c5ccc(NC(=O)Nc6ccncc6)cc5)nc(N5CC6CCC(C5)O6)n4)cc3)cc2)CC1
NO

Query: Lab log: compare recorded IC50 with 0.7 nM; is it strictly lower for "CN(C)CCNC(=O)c1ccc(NC(=O)Nc2ccc(-c3nc(NS(=O)(=O)c4ccccc4)nc(N4CCOCC4)n3)cc2)cc1" ?
Response: NO

Query: Lab log: compare recorded IC50 with 0.7 nM; is it strictly lower for "Nc1ccc(-c2nc(N3CCOCC3)nc(N3C4CCC3COC4)n2)cc1" ?
Response: NO

Query: Lab log: compare recorded IC50 with 0.7 nM; is it strictly lower for "O=C(Nc1ccc(C(=O)O)cc1)Nc1ccc(-c2nc(-c3cccs3)nc(N3CCOCC3)n2)cc1" ?
Response: NO

Query: Lab log: compare recorded IC50 with 0.7 nM; is it strictly lower for "CCN1CCN(C(=O)c2ccc(NC(=O)Nc3ccc(-c4nc(N5CCOCC5)nc(N5C6CCCC5COC6)n4)cc3)cc2)CC1" ?
Response: YES

Query: Lab log: compare recorded IC50 with 0.7 nM; is it strictly lower for "CCNC(=O)Nc1ccc(-c2nc(N3CCOCC3)nc(N3CCOCC3)n2)cc1" ?
Response: NO

Query: Lab log: compare recorded IC50 with 0.7 nM; is it strictly lower for "CCCCc1nc(-c2ccc(NC(=O)Nc3ccc(C(=O)O)cc3)cc2)nc(N2CCOCC2)n1" ?
Response: NO

###

# tested.target: PI3K-α (Homo sapiens, UniProt P42336)
# Sequence (P42336 whole entry, species assumed): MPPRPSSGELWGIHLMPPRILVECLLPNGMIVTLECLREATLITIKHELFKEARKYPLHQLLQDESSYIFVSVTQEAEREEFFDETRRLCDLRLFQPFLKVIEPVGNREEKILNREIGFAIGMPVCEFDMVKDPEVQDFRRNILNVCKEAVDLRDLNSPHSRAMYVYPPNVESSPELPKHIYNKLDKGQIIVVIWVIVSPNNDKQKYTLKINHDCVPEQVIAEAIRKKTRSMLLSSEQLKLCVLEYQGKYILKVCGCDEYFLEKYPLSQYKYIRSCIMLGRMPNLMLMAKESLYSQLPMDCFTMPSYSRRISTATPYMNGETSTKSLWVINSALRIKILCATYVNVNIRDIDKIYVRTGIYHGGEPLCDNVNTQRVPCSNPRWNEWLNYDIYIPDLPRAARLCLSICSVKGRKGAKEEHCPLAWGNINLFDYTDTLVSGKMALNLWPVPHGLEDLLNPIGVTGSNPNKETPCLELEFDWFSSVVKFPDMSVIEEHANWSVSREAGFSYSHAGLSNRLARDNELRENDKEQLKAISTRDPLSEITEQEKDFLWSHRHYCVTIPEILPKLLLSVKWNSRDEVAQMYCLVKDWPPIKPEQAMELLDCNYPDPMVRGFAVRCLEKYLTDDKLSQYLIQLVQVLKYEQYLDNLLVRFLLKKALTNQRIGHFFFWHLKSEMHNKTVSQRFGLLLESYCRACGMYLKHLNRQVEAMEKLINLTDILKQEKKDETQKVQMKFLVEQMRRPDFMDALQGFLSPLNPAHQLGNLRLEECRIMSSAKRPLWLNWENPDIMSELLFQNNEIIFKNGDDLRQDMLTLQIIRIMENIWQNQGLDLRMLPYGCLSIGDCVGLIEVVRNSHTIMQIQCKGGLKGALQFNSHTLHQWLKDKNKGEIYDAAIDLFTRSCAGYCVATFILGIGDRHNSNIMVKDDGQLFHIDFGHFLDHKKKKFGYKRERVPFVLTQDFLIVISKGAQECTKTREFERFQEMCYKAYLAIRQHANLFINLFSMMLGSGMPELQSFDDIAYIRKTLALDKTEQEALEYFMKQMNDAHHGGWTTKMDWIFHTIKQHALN
# Sequence (P27986 whole entry partner, species assumed): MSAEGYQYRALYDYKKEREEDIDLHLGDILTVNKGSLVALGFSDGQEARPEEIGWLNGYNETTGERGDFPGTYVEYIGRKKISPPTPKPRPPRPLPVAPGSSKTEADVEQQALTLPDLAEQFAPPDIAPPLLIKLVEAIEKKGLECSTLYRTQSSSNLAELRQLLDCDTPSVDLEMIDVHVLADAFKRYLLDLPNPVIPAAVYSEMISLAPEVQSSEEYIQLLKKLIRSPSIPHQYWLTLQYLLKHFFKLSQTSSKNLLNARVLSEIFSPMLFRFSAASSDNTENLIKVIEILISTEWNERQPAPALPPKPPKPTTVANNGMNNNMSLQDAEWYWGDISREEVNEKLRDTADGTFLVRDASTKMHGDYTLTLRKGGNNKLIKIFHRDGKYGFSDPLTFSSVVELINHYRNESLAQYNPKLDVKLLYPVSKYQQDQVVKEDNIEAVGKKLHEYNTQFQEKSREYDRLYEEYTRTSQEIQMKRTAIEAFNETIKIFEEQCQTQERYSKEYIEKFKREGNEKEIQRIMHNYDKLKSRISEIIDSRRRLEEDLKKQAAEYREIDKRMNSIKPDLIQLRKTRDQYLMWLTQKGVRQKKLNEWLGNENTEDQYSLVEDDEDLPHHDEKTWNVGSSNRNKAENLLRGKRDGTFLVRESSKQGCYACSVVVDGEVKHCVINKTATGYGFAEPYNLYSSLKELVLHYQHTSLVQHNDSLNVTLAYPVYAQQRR
# protocol.text: PI3K-alpha fluorescence polarization assay
# condition.notes: read-out: IC50 PI3Kα
property.label: pIC50
One number for each entry, as −log10 of the molar value.

Give measured pIC50 for every item shown.
1. COCC(COC)Oc1nc(-c2ccc(NC(=O)Nc3ccncc3)cc2)nc(N2CC3CCC(C2)O3)n1
2. O=C(Nc1ccncc1)Nc1ccc(-c2nc(N3CCOCC3)nc(N3CCOCC3)n2)cc1
3. CC(C)Nc1nc(-c2ccc(NC(=O)Nc3ccc(CN(C)C)cc3)cc2)nc(N2C3CCC2COC3)n1
4. Cc1ccc(-c2nc(-c3ccc(NC(=O)Nc4cccc(C(=O)N(C)CCN(C)C)c4)cc3)nc(N3CCOCC3)n2)cc1

Response:
6.06
8.52
5.53
6.33

###

# tested.target: PI3K-γ (Homo sapiens, UniProt P48736)
# Sequence (P48736 whole entry, species assumed): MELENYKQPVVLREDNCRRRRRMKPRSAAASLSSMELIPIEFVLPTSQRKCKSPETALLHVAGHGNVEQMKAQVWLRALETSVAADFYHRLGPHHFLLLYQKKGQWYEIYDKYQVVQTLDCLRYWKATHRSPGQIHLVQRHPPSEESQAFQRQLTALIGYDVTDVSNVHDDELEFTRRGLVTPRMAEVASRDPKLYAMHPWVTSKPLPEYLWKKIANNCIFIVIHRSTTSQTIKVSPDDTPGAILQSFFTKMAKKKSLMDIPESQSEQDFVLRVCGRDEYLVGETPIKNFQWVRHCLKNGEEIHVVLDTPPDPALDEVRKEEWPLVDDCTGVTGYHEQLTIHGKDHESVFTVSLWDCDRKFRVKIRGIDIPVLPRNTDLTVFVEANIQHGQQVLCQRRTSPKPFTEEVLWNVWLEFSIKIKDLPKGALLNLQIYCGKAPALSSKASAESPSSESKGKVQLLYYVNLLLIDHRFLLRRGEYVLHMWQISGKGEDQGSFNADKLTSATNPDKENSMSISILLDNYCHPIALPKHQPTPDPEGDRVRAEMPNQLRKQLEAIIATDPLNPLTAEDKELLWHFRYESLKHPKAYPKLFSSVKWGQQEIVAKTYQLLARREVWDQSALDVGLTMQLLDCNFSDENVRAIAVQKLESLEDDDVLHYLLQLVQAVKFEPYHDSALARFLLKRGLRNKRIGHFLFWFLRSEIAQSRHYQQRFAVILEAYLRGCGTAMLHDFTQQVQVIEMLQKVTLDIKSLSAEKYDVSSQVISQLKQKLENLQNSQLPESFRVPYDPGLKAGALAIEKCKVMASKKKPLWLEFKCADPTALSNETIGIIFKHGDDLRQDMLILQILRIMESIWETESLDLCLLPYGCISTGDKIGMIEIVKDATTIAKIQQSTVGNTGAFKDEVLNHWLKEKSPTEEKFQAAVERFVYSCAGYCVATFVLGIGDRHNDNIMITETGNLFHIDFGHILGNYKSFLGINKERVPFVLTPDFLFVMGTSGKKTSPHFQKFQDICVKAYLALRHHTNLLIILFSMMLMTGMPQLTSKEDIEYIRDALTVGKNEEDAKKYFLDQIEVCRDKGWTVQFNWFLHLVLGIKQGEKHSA
# protocol.text: PI3K-gamma fluorescence polarization assay
# condition.notes: read-out: IC50 PI3Kγ; listed as 529
property.label: IC50 (nM)
One number for each entry, in nM.

Query: Assign IC50 to the following record: CCc1nc(-c2ccc(NC(=O)Nc3ccc(N4CCC(N(C)C)CC4)cc3)cc2)nc(N2CCOCC2)n1 [Example 341]
Response: 48.5

###

# tested.target: PI3K-γ (Homo sapiens)
# protocol.text: PI3K-gamma fluorescence polarization assay
# condition.notes: read-out: IC50 PI3Kγ
property.label: pIC50
Numbers only, as −log10 of the molar value.

// worked examples, pIC50 included
CN1CCN(CC(=O)Nc2ccc(NC(=O)Nc3ccc(-c4nc(N5C6CCC5COC6)nc(N5C6CCC5COC6)n4)cc3)cc2)CC1
5.41
O=C(Nc1ccc(C(=O)N2CCC(N3CCOCC3)CC2)cc1)Nc1ccc(-c2nc(N3CCOCC3)nc(N3C4CCC3COC4)n2)cc1
7.43

Query: Assign pIC50 to the following record: "CN(C)CCN(C)C(=O)Nc1ccc(NC(=O)Nc2ccc(-c3nc(N4CCOCC4)nc(N4CCOCC4)n3)cc2)cc1"
Response: 8.00

###

# tested.target: PI3K-γ (Homo sapiens, UniProt P48736)
# protocol.text: PI3K-gamma fluorescence polarization assay
# condition.notes: read-out: IC50 PI3Kγ; listed as 707
property.label: IC50 (nM)
One number for each entry, in nM.

Query: Assign IC50 to the following record: "O=C(Nc1ccccc1)Nc1ccc(-c2nc(N3CCOCC3)nc(N3CCC4(CC3)OCCO4)n2)cc1"
Response: 234

###

# tested.target: PI3K-α (Homo sapiens)
# protocol.text: PI3K-alpha fluorescence polarization assay
# condition.notes: read-out: IC50 PI3Kα; listed as 710
property.label: pIC50
Give bare numbers, as −log10 of the molar value.

Query: Assign pIC50 to the following record: Cc1cc(NC(=O)Nc2ccc(-c3nc(N4CCOCC4)nc(N4CCC5(CC4)OCCO5)n3)cc2)ccn1 [Example 135]
Response: 7.81

###

# tested.target: PI3K-α (Homo sapiens, UniProt P42336)
# protocol.text: PI3K-alpha fluorescence polarization assay
# condition.notes: read-out: IC50 PI3Kα; listed as 731
property.label: IC50

Query: Output reported IC50 of the molecule CN(C)CCCc1nc(-c2ccc(NC(=O)Nc3ccncc3)cc2)nc(N2CCOCC2)n1 [Example 274] on PI3K-α (Homo sapiens, UniProt P42336).
Response: 33 nM

###

# tested.target: UniProt P48736
# protocol.text: PI3K-gamma fluorescence polarization assay
# condition.notes: read-out: IC50 PI3Kγ; listed as 710
property.label: pIC50
Numbers only, as −log10 of the molar value.

Query: Assign pIC50 to the following record: "Cc1cc(NC(=O)Nc2ccc(-c3nc(N4CCOCC4)nc(N4CCC5(CC4)OCCO5)n3)cc2)ccn1"
Response: 6.84

###

# tested.target: PI3K-α (Homo sapiens, UniProt P42336)
# protocol.text: PI3K-alpha fluorescence polarization assay
# condition.notes: read-out: IC50 PI3Kα; listed as 10
property.label: pIC50
One number for each entry, as −log10 of the molar value.

Query: Assign pIC50 to the following record: "O=C(Nc1ccc(Cl)cc1)Nc1ccc(-c2nc(N3CCOCC3)nc(N3CCOCC3)n2)cc1"
Response: 7.12

###

# tested.target: PI3K-α (Homo sapiens, UniProt P42336)
# protocol.text: PI3K-alpha fluorescence polarization assay
# condition.notes: read-out: IC50 PI3Kα; listed as 828
property.label: IC50 (nM)
One number for each entry, in nM.

Query: Assign IC50 to the following record: CN(C)[C@@H]1CCN(C(=O)c2ccc(NC(=O)Nc3ccc(-c4nc(N5CCOCC5)nc(N5C6CCC5COC6)n4)cc3)cc2)C1 [Example 825]
Response: 2.05

###

# tested.target: PI3K-γ (Homo sapiens)
# protocol.text: PI3K-gamma fluorescence polarization assay
# condition.notes: read-out: IC50 PI3Kγ
property.label: pIC50
Give bare numbers, as −log10 of the molar value.

Give measured pIC50 for every item shown.
1. CC(C)Nc1nc(-c2ccc(NC(=O)Nc3ccc(CN4CCNCC4)cc3)cc2)nc(N2C3CCC2COC3)n1
2. NC(=O)c1ccc(NC(=O)Nc2ccc(-c3nc(C4CCOCC4)nc(N4C5CCC4COC5)n3)cc2)cc1
3. CCc1nc(-c2ccc(NC(=O)Nc3ccc(C(=O)NC4CN(C)C4)cc3)cc2)nc(N2CCOCC2)n1
4. CCCCc1nc(-c2ccc(NC(=O)Nc3ccc(C(=O)Nc4ccc(OCCN(C)C)cc4)cc3)cc2)nc(N2CCOCC2)n1

Response:
5.45
5.83
7.47
6.85

Give measured pIC50 for every item shown.
1. O=C(Nc1ccc(CO)cc1)Nc1ccc(-c2nc(N3CCOCC3)nc(N3CCOCC3)n2)cc1
2. O=C(NCCN1CCCCC1)Nc1ccc(NC(=O)Nc2ccc(-c3nc(N4CCOCC4)nc(N4CCOCC4)n3)cc2)cc1
3. O=C(Nc1ccncc1)Nc1ccc(-c2nc(N3CCCC3)nc(N3CC4CCC(C3)O4)n2)cc1

Response:
[7.82, 8.19, 5.67]
